Test: HILIC, Waters ACQUITY UPLC BEH Amide, 100 × 2.1 mm, 1.7 µm; A: water + 0.125% formic acid + 10 mM ammonium formate; B: 5% water + 95% acetonitrile + 0.125% formic acid + 10 mM ammonium formate; gradient (min/%B) 0/100 2/100 7.7/70 9.5/40 10.25/30 12.75/100 17/100
Conditions: stereoisomer not certain
metric: LC retention time (min)

>>> readoutvalue("O=c1cc(-c2ccc(O)cc2)oc2c(C3OC(CO)C(O)C(O)C3O)c(O)cc(O)c12 (centres undefined)")
5.33
>>> readoutvalue("CNc1ccccc1C(=O)O")
1.22

I: CCC(=O)NS(=O)(=O)c1ccc(-c2c(-c3ccccc3)noc2C)cc1
II: CC1OC(OCC2OC(Oc3c(-c4ccc(O)c(O)c4)oc4cc(O)cc(O)c4c3=O)C(O)C(O)C2O)C(O)C(O)C1O (centres undefined)
Data request: Please indicate which item has the smaller measured LC retention time: I versus II Answer with the label corresponding to your selection.
Data returned: I
